This collection of values is drawn from patent EP4796530A1.

Each entry below lists one item and its recorded half-life value.
- assay.method.text: Rat plasma pharmacokinetics after intravenous administration (LC-MS)
- Type: in vivo
- condition: SD rats, intravenous 2.5 mg/kg
Dear colleague, please return just the value in h, with no unit written.

Example molecules with recorded half-life:
CN(C)Cc1cc(S(=O)(=O)NC(=O)Nc2c3c(cc4c2CCC4)CCC3)ccc1O: 1.93
CN(C)Cc1cccc(S(=O)(=O)NC(=O)Nc2c3c(cc4c2CCC4)CCC3)c1N: 3.85

Q: Form field: reported half-life of CC(C)(O)c1coc(S(=O)(=O)NC(=O)Nc2c3c(cc4c2CCC4)CCC3)c1 [MCC950, reference compound]
A: 0.267

* * *

Catalogue of pIC50 values
- study.system: NLRP3 (Mus musculus)
- Sequence (Q8R4B8 whole entry): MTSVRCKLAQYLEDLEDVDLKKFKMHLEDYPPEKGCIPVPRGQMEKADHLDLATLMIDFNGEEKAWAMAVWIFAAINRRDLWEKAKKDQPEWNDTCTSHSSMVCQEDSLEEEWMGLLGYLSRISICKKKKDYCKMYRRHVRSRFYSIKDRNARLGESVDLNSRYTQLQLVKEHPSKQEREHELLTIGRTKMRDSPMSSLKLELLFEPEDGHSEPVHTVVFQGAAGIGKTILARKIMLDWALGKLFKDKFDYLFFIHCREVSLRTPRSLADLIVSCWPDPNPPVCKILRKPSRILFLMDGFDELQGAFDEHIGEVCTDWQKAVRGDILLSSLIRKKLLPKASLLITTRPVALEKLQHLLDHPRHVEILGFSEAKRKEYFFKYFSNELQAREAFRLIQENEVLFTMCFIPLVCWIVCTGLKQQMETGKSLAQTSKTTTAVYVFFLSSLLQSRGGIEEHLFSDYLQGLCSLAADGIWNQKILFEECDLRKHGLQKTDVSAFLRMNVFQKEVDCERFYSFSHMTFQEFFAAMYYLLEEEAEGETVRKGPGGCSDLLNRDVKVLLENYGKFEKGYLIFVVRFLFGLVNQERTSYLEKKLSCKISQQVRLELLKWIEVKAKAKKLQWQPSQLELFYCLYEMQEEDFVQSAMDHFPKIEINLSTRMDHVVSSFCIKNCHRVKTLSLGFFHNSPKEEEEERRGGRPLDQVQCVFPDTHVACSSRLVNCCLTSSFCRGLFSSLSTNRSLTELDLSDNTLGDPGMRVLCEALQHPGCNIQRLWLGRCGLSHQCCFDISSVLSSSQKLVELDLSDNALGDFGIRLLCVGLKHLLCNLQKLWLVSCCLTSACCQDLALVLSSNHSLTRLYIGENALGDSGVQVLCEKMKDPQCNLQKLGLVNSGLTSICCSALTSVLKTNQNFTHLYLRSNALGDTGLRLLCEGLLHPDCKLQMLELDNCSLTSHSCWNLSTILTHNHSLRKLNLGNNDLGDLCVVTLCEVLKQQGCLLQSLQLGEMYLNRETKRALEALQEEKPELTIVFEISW
- assay.method.text: Inhibition curves (IC50) of canonical NLRP3 activation in J774A.1 cells, IL-1β release
- Type: cell-based
- Parameters: The mouse macrophage cell line J774A.1 was used, and LPS was used as the first signal; host or cells: J774A.1 mouse monocyte-macrophage cell line
- condition: J774A.1 cell LPS+Nig activation model
Scale explanation: pIC50 corresponds to minus log10 of a concentration expressed in moles per litre.

Q: Need pIC50 of CN(C)Cc1cccc(S(=O)(=O)NC(=O)Nc2c3c(cc4c2CCC4)CCC3)c1Cl [Example 1] , thanks.
A: 7.19

Q: Name the reported pIC50 value associated with the molecule Cc1c(CN(C)C)cccc1S(=O)(=O)NC(=O)Nc1c2c(cc3c1CCC3)CCC2 [Example 26]
A: 7.09

Q: Need pIC50, item CN(C)Cc1cc(S(=O)(=O)NC(=O)Nc2c3c(cc4c2CCC4)CCC3)c(F)cc1N [Example 22]
A: 6.89

Q: Which pIC50 is reported for this molecule? CN(C)C1CCOc2c1cccc2S(=O)(=O)NC(=O)Nc1c2c(cc3c1CCC3)CCC2 (centres unmarked) [Example 32]
A: 6.41

Q: Sample CN(C)Cc1cccc(S(=O)(=O)NC(=O)Nc2c3c(cc4c2CCC4)CCC3)c1O [Example 27] — what was its pIC50?
A: 7.10

Q: Form field: reported pIC50 of CN(C)Cc1cc(S(=O)(=O)NC(=O)Nc2c3c(cc4c2CCC4)CCC3)cc(F)c1O [Example 17]
A: 6.71

Q: Find the recorded pIC50 belonging to CN(C)Cc1c(O)ccc(S(=O)(=O)NC(=O)Nc2c3c(cc4c2CCC4)CCC3)c1F [Example 31] and report it.
A: 6.69

Q: # lookup: pIC50 of Cc1c(S(=O)(=O)NC(=O)Nc2c3c(cc4c2CCC4)CCC3)ccc(O)c1CN(C)C [Example 30]
A: 6.84

* * *

We begin with a simple list: items and their reported inhibition at 10 µM.
- study.system: hERG potassium channel (Homo sapiens, UniProt Q12809)
- Construct: host or cells: HEK-293 stably expressing hERG
- Sequence (Q12809 whole entry): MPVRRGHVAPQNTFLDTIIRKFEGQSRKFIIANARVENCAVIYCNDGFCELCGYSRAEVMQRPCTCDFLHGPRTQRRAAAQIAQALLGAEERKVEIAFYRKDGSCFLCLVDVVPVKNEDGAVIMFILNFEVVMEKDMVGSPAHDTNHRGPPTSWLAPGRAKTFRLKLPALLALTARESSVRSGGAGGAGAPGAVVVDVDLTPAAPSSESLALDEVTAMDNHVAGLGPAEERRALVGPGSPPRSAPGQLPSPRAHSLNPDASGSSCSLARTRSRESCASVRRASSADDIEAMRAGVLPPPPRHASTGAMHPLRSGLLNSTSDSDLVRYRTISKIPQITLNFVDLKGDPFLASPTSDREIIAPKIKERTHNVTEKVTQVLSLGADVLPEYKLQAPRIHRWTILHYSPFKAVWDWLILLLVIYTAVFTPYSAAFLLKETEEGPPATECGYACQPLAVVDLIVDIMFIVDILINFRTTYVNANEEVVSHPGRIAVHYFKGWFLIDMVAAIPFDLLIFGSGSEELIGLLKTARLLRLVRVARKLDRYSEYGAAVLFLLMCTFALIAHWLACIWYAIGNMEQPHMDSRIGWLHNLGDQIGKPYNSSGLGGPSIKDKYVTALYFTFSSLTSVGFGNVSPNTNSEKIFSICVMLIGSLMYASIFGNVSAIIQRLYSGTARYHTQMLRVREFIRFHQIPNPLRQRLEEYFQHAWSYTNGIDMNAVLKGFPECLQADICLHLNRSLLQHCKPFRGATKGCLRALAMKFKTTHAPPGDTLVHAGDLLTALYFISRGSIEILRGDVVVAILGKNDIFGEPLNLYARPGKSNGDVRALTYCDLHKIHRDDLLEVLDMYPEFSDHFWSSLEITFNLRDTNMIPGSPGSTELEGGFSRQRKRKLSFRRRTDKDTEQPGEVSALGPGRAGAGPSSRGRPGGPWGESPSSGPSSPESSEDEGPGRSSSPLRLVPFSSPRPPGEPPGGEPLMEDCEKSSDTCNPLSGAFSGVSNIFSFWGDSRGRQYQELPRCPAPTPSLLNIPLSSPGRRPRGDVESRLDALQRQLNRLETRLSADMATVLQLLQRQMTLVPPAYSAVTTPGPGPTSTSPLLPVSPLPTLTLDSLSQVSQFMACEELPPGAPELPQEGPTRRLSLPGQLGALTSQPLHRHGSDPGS
- assay.method.text: hERG inhibition, automated patch clamp (QPatch 48X) in HEK-293 cells stably expressing hERG
- Format: cell-based
- condition: HEK-293 cells stably expressing hERG potassium channel, pH 7.4, 10 µM, read-out: hERG inhibition rate
Output spec: scalar in %, unitless text.

Would you please look over these solved cases?
CN(C)Cc1cccc(S(=O)(=O)NC(=O)Nc2c3c(cc4c2CCC4)CCC3)c1N: 2.96
CN(C)Cc1cc(S(=O)(=O)NC(=O)Nc2c3c(cc4c2CCC4)CCC3)ccc1O: -0.61

Turning now to a further compound:
Q: GET /values?readout=inhibition at 10 µM&system=hERG potassium channel (Homo sapiens, UniProt Q12809)&item= "COc1ccc(S(=O)(=O)NC(=O)Nc2c3c(cc4c2CCC4)CCC3)cc1CN(C)C"
A: 1.56
